Listing: Potency of selected molecules
- experimentalProtocol: Acumen qHTS Assay for Inhibitors of the mTORC1 Signaling Pathway in MEF (Tsc2-/-, p53-/-) Cells: Hit Validation;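 also: phospho-rpS6 Ser235/236 immunofluorescence normalized to propidium iodide cell count; potency is read from the fitted curve at half-maximal effect; nearly all actives have a fitted effect of over 65% in size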
- particulars: Acumen imaging
Records with an inconclusive call do not appear. Activity calls are given as the source filed them. Calls follow the shape of the dose curve; as a rule, active = well fitted inhibition curve with a large enough effect; inconclusive = small, poorly fitted or top-dose-only effect; inactive = no such curve, though single readings can be large or run the other way.
readout: Potency

INSERT INTO assay_data (molecule, val) VALUES
  ('Cc1ccc(-c2csc(-c3cc4c([nH]c3=O)CC(c3ccccc3)CC4=O)n2)cc1 (centres undefined)', '0.927 µM (active)'),
  ('Cc1cc(C)c(NC(=O)C2CCN(c3nc4ccccc4n4cccc34)CC2)c(C)c1', '14.7 µM (active)'),
  ('CCOC(=O)c1c(C)[nH]c(CCC(=O)NCCCN2CCN(c3cc(C)ccc3C)CC2)c1C', '16.5 µM (active)'),
  ('CCOC(=O)c1c(NC(=O)c2nc(S(C)(=O)=O)ncc2Cl)sc(C(C)=O)c1C', '4.14 µM (active)'),
  ('CC1=C(C(=O)Nc2ccc(C)cc2C)C(c2cc(Br)ccc2F)n2ncc(C(=O)Nc3ccc(C)cc3)c2N1 (centres undefined)', '9.27 µM (active)'),
  ('CCC1=Nc2cc(C(=O)NC3CCC(C)CC3)ccc2Sc2ccc(C)cc21 (centres undefined)', '1.47 µM (active)'),
  ('CCOC(=O)c1[nH]c2ccccc2c1NC(=O)c1ccccc1OCC', '2.93 µM (active)'),
  ('CCS(=O)(=O)c1ncc(Cl)c(C(=O)Nc2ccc(S(=O)(=O)N(C)c3ccccc3)cc2)n1', '1.47 µM (active)'),
  ('O=C(CC1(O)C(=O)N(CCc2ccccc2)c2ccc(Br)cc21)c1ccccc1O (centres undefined)', '6.56 µM (active)');

The measured values listed here are drawn from PubChem BioAssay AID651784.
